Source: patent US8653048B2

In this section we review reported IC50 values for a set of compounds.
test system: HT29: a human colon cancer cell line; assay: MTT analytical method, HT29 cells; assay type: cell-based; conditions: HT-29, 72 h

{"STRUCTURE": "CCCCCCCCCCCOC(=O)c1ccccc1C(=O)Nc1ccn([C@@H]2O[C@H](CO)[C@@H](O)C2(F)F)c(=O)n1", "VALUE TYPE": "IC50", "ASSAY RESULT": "> 200 µM"}
{"STRUCTURE": "CCCCCCCCCCCCOC(=O)c1nccnc1C(=O)Nc1ccn([C@@H]2O[C@H](CO)[C@@H](O)C2(F)F)c(=O)n1", "VALUE TYPE": "IC50", "ASSAY RESULT": "2 µM"}
{"STRUCTURE": "CCCCCCCCCCCOC(=O)c1cccnc1C(=O)Nc1ccn([C@@H]2O[C@H](CO)[C@@H](O)C2(F)F)c(=O)n1", "VALUE TYPE": "IC50", "ASSAY RESULT": "35 µM"}
{"STRUCTURE": "CCCCCCCCCCCOC(=O)c1ncccc1C(=O)Nc1ccn([C@@H]2O[C@H](CO)[C@@H](O)C2(F)F)c(=O)n1", "VALUE TYPE": "IC50", "ASSAY RESULT": "< 2 µM"}
{"STRUCTURE": "CCCCCCCCCCCCOC(=O)c1cccc(C(=O)Nc2ccn([C@@H]3O[C@H](CO)[C@@H](O)C3(F)F)c(=O)n2)n1", "VALUE TYPE": "IC50", "ASSAY RESULT": "7 µM"}

Let us move to another entry and its IC50.
Report the value of IC50 obtained on HT29: a human colon cancer cell line for CCCCCCCCCCCCOC(=O)c1ncccc1C(=O)Nc1ccn([C@@H]2O[C@H](CO)[C@@H](O)C2(F)F)c(=O)n1 .
20 µM
